The entries below are paired with their reported DC50.
# STUDY SYSTEM: KRAS4B G12D (Homo sapiens, UniProt P01116, G12D)
# Construct: HiBit; expressed in transfected cells; host or cells: GP5d cells (ECACC 95090715), stably transduced with lentivirus, CMV promoter
# Sequence (P01116 1-188 isoform P01116-2 G12D): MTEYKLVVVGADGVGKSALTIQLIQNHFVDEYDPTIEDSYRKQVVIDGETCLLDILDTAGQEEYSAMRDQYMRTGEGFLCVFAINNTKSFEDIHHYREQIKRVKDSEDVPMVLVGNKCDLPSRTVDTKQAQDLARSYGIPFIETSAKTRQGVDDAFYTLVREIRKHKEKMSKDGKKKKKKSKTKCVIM
# PROTOCOL DETAILS: HiBit KRAS4B mutant spectrum degradation assay, KRAS4B G12D in GP5d cells (18 h)
# Format: cell-based
# PARTICULARS: KRAS mutation G12D
ASSAY METRIC: DC50 (nM)

COMPOUND	RESULT UNIT	REPORTED
Cc1ncsc1-c1ccc([C@@H](NC(=O)[C@@H]2C[C@@H](O)CN2C(=O)[C@H](C(C)C)n2cc(OCCCN3CCCN(c4nccc(-c5noc([C@@]6(C)CCCc7sc(N)c(C#N)c76)n5)n4)[C@@H](C)C3)nn2)[C@H](O)C(C)C)cc1 (single isomer, unassigned)	nM	1.3
Cc1ncsc1-c1ccc(CNC(=O)[C@@H]2C[C@@H](O)CN2C(=O)[C@@H](c2cc(OCCCN3CCCN(c4nccc(-c5noc([C@@]6(C)CCCc7sc(N)c(C#N)c76)n5)n4)[C@@H](C)C3)no2)C(C)C)cc1 (single isomer, unassigned)	nM	1.3
Cc1ncsc1-c1ccc(CNC(=O)[C@@H]2C[C@@H](O)CN2C(=O)[C@@H](NC(=O)CCCCCN2CCCN(c3nccc(-c4noc([C@@]5(C)CCCc6sc(N)c(C#N)c65)n4)n3)[C@@H](C)C2)C(C)(C)C)cc1	nM	48
Cc1ncsc1-c1ccc(CNC(=O)[C@@H]2C[C@@H](O)CN2C(=O)[C@@H](c2cc(OCCCCN3CCCN(c4nccc(-c5noc([C@@]6(C)CCCc7sc(N)c(C#N)c76)n5)n4)[C@@H](C)C3)no2)C(C)C)cc1 (single isomer, unassigned)	nM	1.1

====

The entries below are paired with their reported Dmax at 18 h.
# STUDY SYSTEM: KRAS4B G12C (Homo sapiens, UniProt P01116, G12C)
# Construct: HiBit; expressed in transfected cells; host or cells: GP5d cells (ECACC 95090715), stably transduced with lentivirus, CMV promoter
# Sequence (P01116 1-188 isoform P01116-2 G12C): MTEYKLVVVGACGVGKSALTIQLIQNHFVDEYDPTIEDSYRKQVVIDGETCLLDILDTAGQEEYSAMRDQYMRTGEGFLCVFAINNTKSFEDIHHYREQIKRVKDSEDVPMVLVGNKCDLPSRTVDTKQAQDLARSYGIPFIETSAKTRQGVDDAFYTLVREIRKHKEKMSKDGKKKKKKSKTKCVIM
# PROTOCOL DETAILS: HiBit KRAS4B mutant spectrum degradation assay, KRAS4B G12C in GP5d cells (18 h)
# Assay type: cell-based
# PARTICULARS: KRAS mutation G12C

COMPOUND	Dmax at 18 h / % Ctrl.
Cc1ncsc1-c1ccc([C@@H](NC(=O)[C@@H]2C[C@@H](O)CN2C(=O)[C@H](C(C)C)n2cc(OCCCN3CCCN(c4nccc(-c5noc([C@@]6(C)CCCc7sc(N)c(C#N)c76)n5)n4)[C@@H](C)C3)nn2)[C@H](O)C(C)C)cc1 (single isomer, unassigned) [I-43]	95.6
Cc1ncsc1-c1ccc(CNC(=O)[C@@H]2C[C@@H](O)CN2C(=O)[C@@H](c2cc(OCCCN3CCCN(c4nccc(-c5noc([C@@]6(C)CCCc7sc(N)c(C#N)c76)n5)n4)[C@@H](C)C3)no2)C(C)C)cc1 (single isomer, unassigned) [I-25]	92.5

====

The entries below are paired with their reported log10 IC50.
# Tested on: SW620 cells
# PROTOCOL DETAILS: SW620 cell proliferation assay (colorectal cancer, G12V), 5 days
# Format: cell-based
# PARTICULARS: Homo sapiens, SW-620, 120 h
ASSAY METRIC: log10 IC50 (log10 of the value in nM)

COMPOUND	log10 IC50
Cc1ncsc1-c1ccc(CNC(=O)[C@@H]2C[C@@H](O)CN2C(=O)[C@H](c2cc(OCCCN3CCCN(c4nccc(-c5noc([C@@]6(C)CCCc7sc(N)c(C#N)c76)n5)n4)[C@@H](C)C3)no2)C(C)C)cc1 (single isomer, unassigned)	2.90
Cc1ncsc1-c1ccc([C@@H](NC(=O)[C@@H]2C[C@@H](O)CN2C(=O)[C@H](C(C)C)n2cc(OCCCCN3CCCN(c4nccc(-c5noc([C@@]6(C)CCCc7sc(N)c(C#N)c76)n5)n4)[C@@H](C)C3)nn2)[C@H](C)O)cc1 (single isomer, unassigned)	1.02
Cc1ncsc1-c1ccc(CNC(=O)[C@@H]2C[C@@H](O)CN2C(=O)[C@@H](NC(=O)CCCCCN2CCCN(c3nccc(-c4noc([C@@]5(C)CCCc6sc(N)c(C#N)c65)n4)n3)[C@@H](C)C2)C(C)(C)C)cc1	2.45
Cc1ncsc1-c1ccc(CNC(=O)[C@@H]2C[C@@H](O)CN2C(=O)C(c2cc(OCCN3CCCN(c4nccc(-c5noc([C@@]6(C)CCCc7sc(N)c(C#N)c76)n5)n4)[C@@H](C)C3)no2)C(C)C)cc1 (stereo partly drawn)	2.78
Cc1ncsc1-c1ccc([C@H](CO)NC(=O)[C@@H]2C[C@@H](O)CN2C(=O)[C@H](C(C)C)n2cc(OCCCCN3CCCN(c4nccc(-c5noc([C@@]6(C)CCCc7sc(N)c(C#N)c76)n5)n4)[C@@H](C)C3)nn2)cc1	1.42
Cc1ncsc1-c1ccc(CNC(=O)[C@@H]2C[C@@H](O)CN2C(=O)C(c2cc(OCCCCN3CCN(c4nccc(-c5noc([C@@]6(C)CCCc7sc(N)c(C#N)c76)n5)n4)[C@@H](C)C3)no2)C(C)C)cc1 (stereo partly drawn)	3.95
Cc1cc(CNC(=O)[C@@H]2C[C@@H](O)CN2C(=O)C(c2cc(OCCCCN3CCCN(c4nccc(-c5noc([C@@]6(C)CCCc7sc(N)c(C#N)c76)n5)n4)[C@@H](C)C3)no2)C(C)C)ccc1-c1scnc1C (stereo partly drawn)	2.06
Cc1cc(CNC(=O)[C@@H]2C[C@@H](O)CN2C(=O)C(c2cc(OCCCCN3CCCN(c4nccc(-c5noc([C@@]6(C)CCCc7sc(N)c(C#N)c76)n5)n4)[C@@H](C)C3)no2)C(C)C)c(F)cc1-c1scnc1C (stereo partly drawn)	2.31
Cc1ncsc1-c1ccc([C@H](CO)NC(=O)[C@@H]2C[C@@H](O)CN2C(=O)[C@H](C(C)C)n2cc(OC(C)CCCN3CCCN(c4nccc(-c5noc([C@@]6(C)CCCc7sc(N)c(C#N)c76)n5)n4)[C@@H](C)C3)nn2)cc1 (stereo partly drawn)	1.79
